Provenance of the data: patent EP0374249A1

Recorded Prozentsatz des Ansetzens von Körnern bei freier Bestäubung, one value per entry.
- Tested on: Winterweizens Sorte Mir.onovskaya 808
- Measurement Notes: Field test of pollen sterilisation (gametocidal activity), winter wheat Mironovskaya 808
- Type: in vivo, Winterweizen
- Experimental Parameters: period V; 2% aqueous emulsion; 20 kg/ha; non-isolated control ears = 100%

Observe how each entry below is paired with its result.
| Compound | Recorded Measurement |
| --- | --- |
| CN(C)CCCNC(=O)/C=C\C(=O)O | 97,4% |
| CCNC(=O)/C=C\C(=O)O | 95,5% |

Inquiry: What is its Prozentsatz des Ansetzens von Körnern bei freier Bestäubung for Winterweizens Sorte Mir.onovskaya 808? Entry: O=C(O)/C=C\C(=O)NCCO [Beispiel 4, N-(2-Hydroxyäthyl)-maleaminsäure]
Reply text: 93,4%

Inquiry: What is its Prozentsatz des Ansetzens von Körnern bei freier Bestäubung for Winterweizens Sorte Mir.onovskaya 808? Entry: `CN(C)CCNC(=O)/C=C\C(=O)O`
Reply text: 89,9%

Inquiry: What is its Prozentsatz des Ansetzens von Körnern bei freier Bestäubung for Winterweizens Sorte Mir.onovskaya 808? Entry: `NC(=O)NC(=O)/C=C\C(=O)O`
Reply text: 93,9%

* * *

- Test system: diploidem Roggen Sorte Chulpan
- Measurement Notes: Field test of pollen sterilisation, diploid rye Chulpan
- Format: in vivo
- Experimental Parameters: period V of organogenesis; 1% aqueous emulsion; 8 kg/ha; free pollination
Recorded Anzahl von Körnern der Ähre bei freier Bestäubung, one value per entry.

Observe how each entry below is paired with its result.
| Compound | Recorded Measurement |
| --- | --- |
| O=C(O)/C=C\C(=O)NCCO [Beispiel 4, N-(2-Hydroxyäthyl)-maleaminsäure] | 50,1 |
| NC(=O)NC(=O)/C=C\C(=O)O [Beispiel 5, N-Karbamoylmaleaminsäure] | 48,7 |
| CN(C)CCCNC(=O)/C=C\C(=O)O [Beispiel 2, N-(3-Dimethylaminopropyl)-maleaminsäure] | 51,6 |
| CN(C)CCNC(=O)/C=C\C(=O)O [Beispiel 1, N-(2-Dimethylaminoäthyl)-maleaminsäure] | 50,2 |

Let us examine a further case.
Inquiry: What is its Anzahl von Körnern der Ähre bei freier Bestäubung for diploidem Roggen Sorte Chulpan? Entry: CCNC(=O)/C=C\C(=O)O [Beispiel 3, N-Äthylmaleaminsäure]
Reply text: 49,8

* * *

- Tested on: Hirse Sorte K-9693 Kormovoe 1
- Measurement Notes: Field test of pollen sterilisation, millet K-9693 Kormovoe 1
- Assay type: in vivo
- Experimental Parameters: period V of organogenesis; 1% aqueous emulsion; 6 kg/ha; free pollination
Recorded Anzahl von Körnern der Rispe bei freier Bestäubung, one value per entry.

Observe how each entry below is paired with its result.
| Compound | Experimental System | Recorded Measurement |
| --- | --- | --- |
| O=C(O)/C=C\C(=O)NCCO [Beispiel 57, N-(2-Hydroxyäthyl)maleaminsäure] | Hirse Sorte K-9693 Kormovoe 1 | 127,2 |
| CN(C)CCCNC(=O)/C=C\C(=O)O [Beispiel 55, N-(3-Dimethylaminopropyl)maleaminsäure] | Hirse Sorte K-9693 Kormovoe 1 | 100,8 |

Inquiry: Which measured Anzahl von Körnern der Rispe bei freier Bestäubung value corresponds to CN(C)CCNC(=O)/C=C\C(=O)O [Beispiel 54, N-(2-Dimethylaminoäthyl) maleaminsäure] ?
Reply text: 124,2

Inquiry: Which measured Anzahl von Körnern der Rispe bei freier Bestäubung value corresponds to CCNC(=O)/C=C\C(=O)O [Beispiel 56, N-Äthylmaleaminsäure] ?
Reply text: 114,7

Inquiry: Which measured Anzahl von Körnern der Rispe bei freier Bestäubung value corresponds to NC(=O)NC(=O)/C=C\C(=O)O [Beispiel 58, N-Karbamoylmaleaminsäure] ?
Reply text: 133,6

* * *

- System: Sommerweizens Sorte Botanicheskaya 4
- Measurement Notes: Field test of pollen sterilisation, spring wheat Botanicheskaya 4
- Type: in vivo, Sommerweizen
- Experimental Parameters: period V of organogenesis; 1% aqueous emulsion; 6 kg/ha; isolated ears
Measured Attribute: Anzahl von Körnern der Ähre im Isolator

Observe how each entry below is paired with its result.
| Compound | Anzahl von Körnern der Ähre im Isolator |
| --- | --- |
| CCNC(=O)/C=C\C(=O)O | 0,0 |
| O=C(O)/C=C\C(=O)NCCO [Beispiel 4, N-(2-Hydroxyäthyl)-maleaminsäure] | 0,0 |
| CN(C)CCNC(=O)/C=C\C(=O)O | 0,7 |
| NC(=O)NC(=O)/C=C\C(=O)O | 0,0 |

Let us examine a further case.
Inquiry: What is its Anzahl von Körnern der Ähre im Isolator for Sommerweizens Sorte Botanicheskaya 4? Entry: `CN(C)CCCNC(=O)/C=C\C(=O)O`
Reply text: 0,1

* * *

- System: diploidem Roggen Sorte Voskhod 2
- Measurement Notes: Field test of pollen sterilisation, diploid rye Voskhod 2
- Format: in vivo
- Experimental Parameters: period V; 1% aqueous emulsion; 10 kg/ha; non-isolated control ears = 100%
Measured Attribute: Prozentsatz des Ansetzens von Körnern bei freier Bestäubung

Inquiry: Which measured Prozentsatz des Ansetzens von Körnern bei freier Bestäubung value corresponds to `CN(C)CCNC(=O)/C=C\C(=O)O` ?
Reply text: 92,7%

Inquiry: Which measured Prozentsatz des Ansetzens von Körnern bei freier Bestäubung value corresponds to `CCNC(=O)/C=C\C(=O)O` ?
Reply text: 96,0%

Inquiry: Which measured Prozentsatz des Ansetzens von Körnern bei freier Bestäubung value corresponds to `CN(C)CCCNC(=O)/C=C\C(=O)O` ?
Reply text: 87,0%

Inquiry: Which measured Prozentsatz des Ansetzens von Körnern bei freier Bestäubung value corresponds to O=C(O)/C=C\C(=O)NCCO [Beispiel 4, N-(2-Hydroxyäthyl)-maleaminsäure] ?
Reply text: 94,6%

Inquiry: Which measured Prozentsatz des Ansetzens von Körnern bei freier Bestäubung value corresponds to `NC(=O)NC(=O)/C=C\C(=O)O` ?
Reply text: 93,7%

* * *

Recorded Anzahl von Körnern der Ähre im Isolator, one value per entry.
- Test system: Winterweizens Sorte Mir.onovskaya 808
- Measurement Notes: Field test of pollen sterilisation (gametocidal activity), winter wheat Mironovskaya 808
- Format: in vivo, Winterweizen
- Experimental Parameters: period V of organogenesis; 2% aqueous emulsion; 20 kg/ha; isolated ears

Observe how each entry below is paired with its result.
| Compound | Anzahl von Körnern der Ähre im Isolator |
| --- | --- |
| CN(C)CCNC(=O)/C=C\C(=O)O [Beispiel 1, N-(2-Dimethylaminoäthyl)-maleaminsäure] | 0,1 |
| NC(=O)NC(=O)/C=C\C(=O)O [Beispiel 5, N-Karbamoylmaleaminsäure] | 0,0 |
| CCNC(=O)/C=C\C(=O)O [Beispiel 3, N-Äthylmaleaminsäure] | 0,2 |
| O=C(O)/C=C\C(=O)NCCO [Beispiel 4, N-(2-Hydroxyäthyl)-maleaminsäure] | 0,3 |

Inquiry: Which measured Anzahl von Körnern der Ähre im Isolator value corresponds to CN(C)CCCNC(=O)/C=C\C(=O)O [Beispiel 2, N-(3-Dimethylaminopropyl)-maleaminsäure] ?
Reply text: 0,1

* * *

- Tested on: diploidem Roggen Sorte Chulpan
- Measurement Notes: Field test of pollen sterilisation, diploid rye Chulpan
- Assay type: in vivo
- Experimental Parameters: period V; 1% aqueous emulsion; 8 kg/ha; non-isolated control ears = 100%
Measured Attribute: Prozentsatz des Ansetzens von Körnern bei freier Bestäubung

| Molecule | Recorded Measurement |
| --- | --- |
| O=C(O)/C=C\C(=O)NCCO [Beispiel 4, N-(2-Hydroxyäthyl)-maleaminsäure] | 88,2% |

Inquiry: Which measured Prozentsatz des Ansetzens von Körnern bei freier Bestäubung value corresponds to `CN(C)CCCNC(=O)/C=C\C(=O)O` ?
Reply text: 90,8%

Inquiry: Which measured Prozentsatz des Ansetzens von Körnern bei freier Bestäubung value corresponds to `CN(C)CCNC(=O)/C=C\C(=O)O` ?
Reply text: 88,4%

Inquiry: Which measured Prozentsatz des Ansetzens von Körnern bei freier Bestäubung value corresponds to `CCNC(=O)/C=C\C(=O)O` ?
Reply text: 87,7%

Inquiry: Which measured Prozentsatz des Ansetzens von Körnern bei freier Bestäubung value corresponds to `NC(=O)NC(=O)/C=C\C(=O)O` ?
Reply text: 85,7%

* * *

- Measurement Notes: Toxicity test in animals (LD50)
- Experimental Parameters: in vivo; animal test, per kg animal weight; species and route not given
Recorded LD50, one value per entry.
Express your answer in mg/kg, writing the number without its unit.

Observe how each entry below is paired with its result.
| Molecule | Measured Attribute | Unit Of Measurement | Recorded Measurement |
| --- | --- | --- | --- |
| NC(=O)NC(=O)/C=C\C(=O)O [Beispiel 5, N-Karbamoylmaleaminsäure] | LD50 | mg/kg | 2000 |
| O=C(O)/C=C\C(=O)NCCO [Beispiel 4, N-(2-Hydroxyäthyl)-maleaminsäure] | LD50 | mg/kg | 1500 |
| CN(C)CCNC(=O)/C=C\C(=O)O [Beispiel 1, N-(2-Dimethylaminoäthyl)-maleaminsäure] | LD50 | mg/kg | 2500 |

Let us examine a further case.
Inquiry: Which measured LD50 value corresponds to CCNC(=O)/C=C\C(=O)O [Beispiel 3, N-Äthylmaleaminsäure] ?
Reply text: 2000

* * *

- Test system: diploidem Roggen Sorte Talovskaya 12
- Measurement Notes: Field test of pollen sterilisation, diploid rye Talovskaya 12
- Type: in vivo
- Experimental Parameters: period V of organogenesis; 1% aqueous emulsion; 6 kg/ha; isolated ears
Measured Attribute: Anzahl von Körnern der Ähre im Isolator

| Molecule | Anzahl von Körnern der Ähre im Isolator |
| --- | --- |
| O=C(O)/C=C\C(=O)NCCO [Beispiel 4, N-(2-Hydroxyäthyl)-maleaminsäure] | 0,3 |
| CN(C)CCNC(=O)/C=C\C(=O)O | 0,2 |
| CCNC(=O)/C=C\C(=O)O | 0,0 |
| NC(=O)NC(=O)/C=C\C(=O)O | 0,0 |

Inquiry: Which measured Anzahl von Körnern der Ähre im Isolator value corresponds to `CN(C)CCCNC(=O)/C=C\C(=O)O` ?
Reply text: 0,0
